- experimentDescription: GST conjugation activity with CDNB (HPLC)
- Assay type: biochemical
- assayContext: 0.4 mM electrophilic substrate, 4 mM glutathione, 0.1 M MOPS pH 7.0, corrected for uncatalyzed reaction
Record form. Attribute: Activity of soybean GST enzyme, CDNB. Fill in for each entry.
The reply should be a number in nmol/min/mg, with the unit left off.

Could you share which Activity of soybean GST enzyme, CDNB value was measured for se3.03b09: soybean type III GST encoded by cDNA insert in clone se3.03b09 (protein) MSKSEDLKLLGGWFSPFALRVQIALNLKGLEYEVVEETLNPKSDLLLKSNPVHKKIPVFFHGDKVICESAIIVEYIDEAWTNVPSILPQNAYDRANARFWFAYIDEKWFTSLRSVLVAEDDEAKKPHFEQAEEGLERLEEVFNKYSEGKAYFGGDSIGFIDIGFGSFLSWMRVIEEMSGRKLLDEKKHPGLTQWAETFAADPAVKGILPETDKLVEFAKILQLKWTAAAAAAAK ?
14364

Can you handle se1.27b04: soybean type I GST encoded by cDNA insert in clone se1.27b04 (protein) MICLHEKEVDFELVPVNVFAAEHKQPPFLSKNPFGFIPVLEDGDLTLFESRAITAYVAEKFKETEPDLIRHKDAKEAALVKVWTEVESHYYEPAVSPIIYEYFVAPFQGKEPDKSVIDTNVEKLKTVLDVYEAKLSSTKYLAGDFYSLADLSHVSETHYLMQTPCASMINELPHVKAWWEDISSRPAFNKVVGGMSFGQNH next?
15
